Tested on: MDA-MB-435 melanoma
Experiment: NCI-60 one-dose screen, 48 h (100 = growth as untreated, 0 = no growth, -100 = all killed)
Settings: 10 µM unless noted
Compounds without any hit were thinned out: in the full panel of roughly 83,000, 20% have a hit.
Quantity Name: growth (%)
All answers are understood in %, so give the number only.

[[record]]
compound = "C=CC(=O)OC1CCC(C(C)(C)CC)CC1 (centres undefined)"
assayed_target = "MDA-MB-435 melanoma"
quantity_name = "growth"
reported_result = 103

[[record]]
compound = "C/C(=N\\O)c1ccccn1"
assayed_target = "MDA-MB-435 melanoma"
quantity_name = "growth"
reported_result = 94.3

[[record]]
compound = "CCOS(=O)(=O)c1ccc([N+](=O)[O-])cc1"
assayed_target = "MDA-MB-435 melanoma"
quantity_name = "growth"
reported_result = 107

[[record]]
compound = "Clc1ncnc2nc[nH]c12"
assayed_target = "MDA-MB-435 melanoma"
quantity_name = "growth"
reported_result = 106

[[record]]
compound = "CC1=CC(=Nc2ccc(N(C)C)cc2)C=C(C)C1=O"
assayed_target = "MDA-MB-435 melanoma"
quantity_name = "growth"
reported_result = 75.7


Exercise: Fill in: growth of `COc1ccc(/C=N/NC(=O)COCC(=O)N/N=C/c2ccc(OC)cc2)cc1` is ___
Solution: 98.2

Exercise: Fill in: growth of `CC(=O)NNC(=S)/N=C\C(C(=O)c1ccccc1)=C(/O)c1ccccc1` is ___
Solution: 109

Exercise: Fill in: growth of `CCNC(=O)OCCc1c2ccccc2nc2ccccc12` is ___
Solution: 118

Exercise: Fill in: growth of `CCCOCc1cn[nH]n1` is ___
Solution: 105
